Can you tell me composite z-score for the items I'm about to list?
Target: Torsin-1A-interacting protein 2 (Homo sapiens)
Test: LULL1 binders on small-molecule microarray, primary screen, cell lysate, human LULL1 lysate, 635/667 nm fluorescence (AID 1092);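 also: probe is lysate of COS7 cells overexpressing human LULL1; score merges per-feature 667 nm fluorescence with signal-to-noise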
Settings: hLULL1 lysate binding, 635 nm fluorescence, higher = more signal
One number for each entry.

>  <Smiles representation>
COC(=O)C(CC#Cc1ccc2c(c1)[C@]1(C(=O)N2)[C@H](c2ccc(O)cc2)N2[C@H](c3ccccc3)[C@H](c3ccccc3)OC(=O)[C@H]2[C@@H]1C(=O)N1CCc2cc(OC)c(OC)cc2C1)C(=O)OC

>  <composite z-score>
1.59

$$$$
>  <Smiles representation>
C=C(COC)/C(=C/C[C@H](OC(=O)c1ccncc1)c1cccc(OCCO)c1)c1cnc2ccccc2c1

>  <composite z-score>
1.75

$$$$
>  <Smiles representation>
COc1ccc([Si](C)(C)[C@H]2[C@H](CCO)O[C@@]3(C(=O)N(Cc4ccccc4)c4ccc(N(C=O)c5ccccc5)cc43)[C@@H]2C)cc1

>  <composite z-score>
1.65

$$$$
>  <Smiles representation>
CC(C)[Si](C#CCCCC#N)(O[C@H](c1ccccc1)c1cn([C@H](C)c2ccccc2)nn1)C(C)C

>  <composite z-score>
0.76

$$$$
>  <Smiles representation>
C=CCOC(=O)[C@@H]1[C@H]2C(=O)O[C@H](c3ccccc3)[C@H](c3ccccc3)N2[C@H](c2ccc(OCCOC(=O)[C@H]3C[C@H]4C(=O)NCC(=O)N4[C@H]3c3ccc(O)cc3)cc2)[C@@]12C(=O)Nc1ccc(I)cc12

>  <composite z-score>
2.08

$$$$

Which measured composite z-score value corresponds to CCOC(=O)C1=C[C@@H](C(C)(C)C)N(S(=O)(=O)c2ccc(C)cc2)[C@H]1c1ccccc1Cl ?
2.61

----------
Can you tell me composite z-score for the items I'm about to list?
Target: Fibroblast growth factor 10 (Homo sapiens) (UniProt O15520)
Sequence (O15520 whole entry, looked up): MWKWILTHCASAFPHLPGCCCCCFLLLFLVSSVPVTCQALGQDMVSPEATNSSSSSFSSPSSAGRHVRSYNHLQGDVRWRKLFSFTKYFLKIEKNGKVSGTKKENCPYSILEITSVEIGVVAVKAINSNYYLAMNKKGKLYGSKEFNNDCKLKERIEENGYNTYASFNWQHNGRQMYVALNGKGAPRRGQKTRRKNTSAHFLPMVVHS
Experiment: FGF10 binders on small-molecule microarrays, primary screen, biochemical, small-molecule microarray, 635 nm fluorescence (AID 1102)
Conditions: FGF10 binding, fluorescence 635 nm, higher = more signal
Numbers only.

Worked cases, composite z-score given:
>  <Compound>
C=CCC(OC(C)=O)[C@@H]1[C@@H](N(Cc2cc3ccccc3o2)C(=O)Cc2ccc(OC)cc2)c2cc(OCCCO)ccc2N1C(=O)Cc1ccc(OC)cc1 (stereo partly drawn)

>  <composite z-score>
0.233

$$$$
>  <Compound>
C=CCOC(=O)[C@@H]1[C@H]2C(=O)O[C@H](c3ccccc3)[C@H](c3ccccc3)N2[C@H](c2ccc(OCCOC(=O)[C@H]3C[C@H]4C(=O)NCC(=O)N4[C@H]3c3ccc(O)cc3)cc2)[C@@]12C(=O)Nc1ccc(I)cc12

>  <composite z-score>
0.613

$$$$
>  <Compound>
CC(=O)NCCCC[C@@H]1NC(=O)[C@@H]2C[C@H](C(=O)NCCCCCC[N+](C)(C)C)[C@H](c3ccc(O)cc3)N2C1=O

>  <composite z-score>
0.518

$$$$
>  <Compound>
CC(C)C[C@H]1NC(=O)[C@H](Cc2ccccc2)NC(=O)[C@@]23C(=O)N[C@@H](Cc4ccccc4)C2[C@H](C)[C@@]2(C)O[C@H]2C3/C=C/C/C=C\CNC1=O (stereo partly drawn)

>  <composite z-score>
0.916

$$$$
>  <Compound>
CC(=O)NCCCC[C@@H]1NC(=O)[C@H]2C[C@@H](C(=O)NCCCCCC[N+](C)(C)C)[C@@H](c3ccc(O)cc3)N2C1=O

>  <composite z-score>
0.348

$$$$
>  <Compound>
COc1ccccc1CN1C(=O)c2ccccc2[C@@H](C(=O)NCCCN(C)C)[C@@H]1c1ccc(CO)cc1

>  <composite z-score>
0.0373

$$$$
>  <Compound>
CC(C)CNC(=O)[C@@H]1c2ccccc2C(=O)N(CC23CC4CC(CC(C4)C2)C3)[C@H]1c1ccc(CO)cc1

>  <composite z-score>
0.124

$$$$
>  <Compound>
C=CCOC(=O)[C@H]1[C@@H]2C(=O)O[C@@H](c3ccccc3)[C@@H](c3ccccc3)N2[C@@H](c2ccc(OCCOC(=O)[C@@H]3C[C@@H]4C(=O)N[C@@H](CC(C)C)C(=O)N4[C@@H]3c3ccc(O)cc3)cc2)[C@]12C(=O)Nc1ccc(I)cc12

>  <composite z-score>
0.649

$$$$
>  <Compound>
[N-]=[N+]=NCc1ccccc1C[C@]1(C(=O)N2CCCCC2)N=C(c2ccc(OCCCO)cc2)O[C@H]1c1ccccc1

>  <composite z-score>
0.567

$$$$
>  <Compound>
O=C1NC(=O)C2C1C=CC(C(O)c1cccc(O)c1)N2Nc1ccc(Cl)cc1Cl (stereo not drawn)

>  <composite z-score>
0.0046

$$$$

Below are some compounds; for each one, tell me its composite z-score.
1. CN(C)CCCC[C@@H]1NC(=O)[C@@H]2C[C@H](C(=O)NCCCCCCNC(=O)CS)[C@H](c3cccc(OCCO)c3)N2C1=O
2. O=C1c2ccccc2[C@](Cc2ccccc2I)(C(=O)O)[C@H](c2ccc(CO)cc2)N1Cc1ccccc1
3. CCCC[C@H]1OB(O)C[C@H]2C1=C(C)C[C@H]1C(=O)C=CC(=O)[C@H]12
4. O=C(NCCO)C1=C[C@H](Oc2ccccc2I)[C@@H](O)[C@H](NCc2ccc(F)cc2)C1
5. C=CCC(OC(C)=O)[C@@H]1[C@@H](N(Cc2cc3ccccc3o2)C(=O)c2cccc3ccccc23)c2cc(OCCCO)ccc2N1C(=O)c1ccc2ccccc2c1 (stereo partly drawn)
6. C=CC[C@]1(C(=O)NCc2ccccc2)COC(c2ccc(OCCCO)cc2)=N1
7. COCCOC(=O)N1C(=O)[C@@]2(c3cc(C#CC4=CCCCC4)ccc31)[C@H](C(=O)N1CCc3cc(OC)c(OC)cc3C1)[C@H]1C(=O)O[C@H](c3ccccc3)[C@H](c3ccccc3)N1[C@@H]2c1ccc(O)cc1
8. COc1ccc(NC(=O)O[C@H]2[C@H](OC(=O)Nc3ccc4c(c3)OCO4)[C@H](OC(=O)Nc3ccc4c(c3)OCO4)[C@@H](OC)O[C@@H]2CO)cc1

1: 0.419; 2: -0.011; 3: 0.845; 4: 1.61; 5: 0.0473; 6: -0.215; 7: 0.438; 8: 0.81

Below are some compounds; for each one, tell me its composite z-score.
1. C[C@H]1NC(=O)C([C@@H](C)OCc2ccccc2)NC(=O)[C@@]23C(=O)N[C@@H](Cc4ccccc4)C2[C@H](C)[C@@]2(C)O[C@H]2C3/C=C/C/C=C\CNC1=O (stereo partly drawn)
2. C=C(COC)C(=O)CC[C@@H](OC(=O)c1cccnc1)c1cccc(OCCO)c1
3. COc1ccc(CCNC(=O)[C@@]2(C)c3ccccc3C(=O)N(Cc3cc(C(F)(F)F)cc(C(F)(F)F)c3)[C@H]2c2ccc(CO)cc2)cc1
4. CCOC(=O)C1=CC[C@@H](c2ccccc2Cl)N(S(=O)(=O)c2ccc(C)cc2)[C@H]1c1cccc(OC)c1

1. 0.699
2. 1.27
3. 0.329
4. 0.331

----------
Target: Calmodulin-1 (Homo sapiens) (UniProt P0DP23)
Assay: calcium-bound CALM1 binders on microarrays, profiling panel, artefact control for SMM control-protein annotation, biochemical, small-molecule microarray, Cy5-labelled CALM1, plus calcium (AID 1112);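 also: score merges spot fluorescence with signal to noise from triplicate slides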
Conditions: Cy5-CALM1 binding fluorescence, higher = more signal
Endpoint: composite z-score
One number for each entry.

Worked cases, composite z-score given:
>  <Compound>
COC(=O)C1=CC(CCCO)=CC(C2CC2)N(Cc2cccc(OC(F)(F)F)c2)C=C1C(=O)OC (stereo unspecified)

>  <Target of assay>
Calmodulin-1 (Homo sapiens) (UniProt P0DP23)

>  <Reported>
0.364

$$$$
>  <Compound>
COC(=O)[C@@]1(Cc2ccc(F)cc2)[C@H]2c3cc(C(=O)N(C)C)n(CCn4cc([N+](=O)[O-])nc4C)c3C[C@H]2CN1C(=O)c1ccccc1

>  <Target of assay>
Calmodulin-1 (Homo sapiens) (UniProt P0DP23)

>  <Reported>
0.378

$$$$
>  <Compound>
C=CC(CO)NC(=O)OCC1c2ccccc2-c2ccccc21 (stereo unspecified)

>  <Target of assay>
Calmodulin-1 (Homo sapiens) (UniProt P0DP23)

>  <Reported>
-0.885

$$$$
>  <Compound>
CCOC(=O)C[C@H]1[C@H](OC(=O)Cc2ccc3c(c2)OCO3)[C@@H](NC(=O)c2ccccc2)c2cc(OCCCO)ccc2N1C(=O)Cc1ccc(OC)cc1

>  <Target of assay>
Calmodulin-1 (Homo sapiens) (UniProt P0DP23)

>  <Reported>
0.188

$$$$
>  <Compound>
CCC[C@@H]1[C@@H](Sc2ccccc2)[C@@H](C(=O)O)[C@H](c2ccc(C)cc2)N1S(=O)(=O)c1ccc(C)cc1

>  <Target of assay>
Calmodulin-1 (Homo sapiens) (UniProt P0DP23)

>  <Reported>
0.859

$$$$
>  <Compound>
NC(=O)N1C(=O)C2C(C1=O)C1C=C(CCCO)C2C(c2ccc(CN3CCCC3)cc2)N1Cc1cccc(OC(F)(F)F)c1 (stereo unspecified)

>  <Target of assay>
Calmodulin-1 (Homo sapiens) (UniProt P0DP23)

>  <Reported>
-0.202

$$$$
>  <Compound>
Cc1ccc(F)cc1S(=O)(=O)N[C@@H]1CCN(Cc2ccc3c(c2)OCO3)C1

>  <Target of assay>
Calmodulin-1 (Homo sapiens) (UniProt P0DP23)

>  <Reported>
-0.997

$$$$
>  <Compound>
COc1ccc(CCNC(=O)[C@@]2(Sc3ccc(C)cc3)CC(=O)N(C(C)C)[C@@H]2c2ccc(CO)cc2)cc1

>  <Target of assay>
Calmodulin-1 (Homo sapiens) (UniProt P0DP23)

>  <Reported>
-0.242

$$$$
>  <Compound>
COCCOC(=O)N1C(=O)[C@@]2(c3cc(C#Cc4ccc(OC)cc4)ccc31)[C@H](c1ccc(OCCO)cc1)N1[C@H](c3ccccc3)[C@H](c3ccccc3)OC(=O)[C@H]1[C@@H]2C(=O)N1CCCCCCC1

>  <Target of assay>
Calmodulin-1 (Homo sapiens) (UniProt P0DP23)

>  <Reported>
1.21

$$$$
>  <Compound>
CCOC(=O)C1=CC[C@@H](c2ccccc2)N(S(=O)(=O)c2ccc(C)cc2)[C@H]1C#N

>  <Target of assay>
Calmodulin-1 (Homo sapiens) (UniProt P0DP23)

>  <Reported>
0.658

$$$$

Below are some compounds; for each one, tell me its composite z-score.
1. CCCCC(O)C1C=CC2C(=O)NC(=O)C2N1Nc1ccccn1 (stereo unspecified)
2. CCCC[C@@H]1C[C@H]1[C@@H](NC(=O)c1ccc(C(F)(F)F)cc1)c1ccc(C(=O)OC)cc1
3. CC(C)(C)OC(=O)CC[C@]1(C(=O)N2CCOCC2)N=C(c2ccc(OCCCO)cc2)O[C@H]1c1ccccc1CN=[N+]=[N-]
4. C=CCNC(=O)[C@@H]1[C@H]2C(=O)O[C@H](c3ccccc3)[C@H](c3ccccc3)N2[C@H](c2ccccc2OCCO)[C@@]12C(=O)N(C(=O)OCCOC)c1ccc(C#CCCO)cc12

1. -0.466
2. 0.271
3. 0.15
4. 0.428

Below are some compounds; for each one, tell me its composite z-score.
1. C=C(C(=O)CC[C@@H](OC(C)=O)c1cccc(OCCO)c1)C(C)C
2. CCCC[C@H]1OB(O)C[C@H]2C1=C(COC)C[C@H]1C(=O)C=CC(=O)[C@H]12

1. -0.94
2. -0.728

Value source: PubChem BioAssay
